FYI, the data here is from ChEMBL document CHEMBL1140940.

Experiment: Cmax in dog at 10 mg/kg, po
Assay type: ADME, organism-based, Canis lupus familiaris
Set-up: dose 10 mg/kg, route oral
Conditions: in vivo
readout name: Cmax (nM)
Give a bare numeral; the unit nM is implied.

In plain terms, CONC(=O)c1cn(-c2ccc3c(c2)CCC3)c2nc(Nc3ccc(C4CCN(C)CC4)cc3)ncc2c1=O has a documented Cmax of 120

====

Measured half-life, listed per entry.
Experiment: Half life in Sprague-Dawley rat at 2 mg/kg, iv
Assay type: ADME, organism-based
Parameters: dose 2 mg/kg, route intravenous
Conditions: in vivo
Please give a number only; it is taken to be in h.

Kindly note the recorded half-life for CONC(=O)c1cn(-c2ccc3c(c2)CCC3)c2nc(Nc3ccc(CCN4CCNC(=O)C4)cc3)ncc2c1=O , which is 6

***
Entry under test: CN1CCN(CCc2ccc(Nc3ncc4c(=O)c(C(N)=O)cn(-c5ccc6c(c5)CCC6)c4n3)cc2)CC1 . Its half-life was 7

// half-life lookup, compound = CONC(=O)c1cn(-c2ccc3c(c2)CCC3)c2nc(Nc3ccc(C4CCN(C)CC4)cc3)ncc2c1=O , result: 4.6

Lookup result for CONC(=O)c1cn(-c2ccc3c(c2)CCC3)c2nc(Nc3ccc(C4CCN(CC(=O)O)CC4)cc3)ncc2c1=O ; measured half-life: 1.7

get_value(item= CONC(=O)c1cn(-c2ccc3c(c2)CCC3)c2nc(Nc3ccc(C4CCN(CCO)CC4)cc3)ncc2c1=O , readout=half-life) returns 3
